The molecules listed here are annotated with their IC50.
System: MDA-MB-231
Experiment: Antitumor activity against human MDA-MB-231 cells after 72 hrs by MTT assay
Assay type: functional, cell-based
Settings: MDA-MB-231, 72 h
Hi! Could you send only the number? It should be in µM, unit omitted.

The following molecules have reported results that may help.
{"TEST_SMILES": "CC(C)=CC(=O)C[C@@H](C)[C@H]1CC[C@@]2(C)[C@@H]3CC[C@H]4[C@](C)(CO)[C@@H](OS(=O)(=O)[O-])CC[C@@]45C[C@@]35CC[C@]12C.[Na+]", "PROPERTY": "IC50", "MEASUREMENT": 6}
{"TEST_SMILES": "CC(C)CC(=O)C[C@@H](C)[C@H]1CC[C@@]2(C)C3=C(CC[C@]12C)[C@@]1(C)CC[C@H](OS(=O)(=O)[O-])[C@@](C)(COS(=O)(=O)[O-])[C@@H]1CC3.[Na+].[Na+]", "PROPERTY": "IC50", "MEASUREMENT": 31}

Problem: Item: `CC(C)CC(=O)C[C@@H](C)[C@H]1CC[C@@]2(C)[C@@H]3CC[C@H]4[C@](C)(COS(=O)(=O)[O-])[C@@H](OS(=O)(=O)[O-])CC[C@@]45C[C@@]35CC[C@]12C.[Na+].[Na+]` Test system: MDA-MB-231 Read-out: IC50 Value: ?
Result: 31

Problem: Another molecule to check: `CC(C)=CC(=O)C[C@@H](C)[C@H]1CC[C@@]2(C)[C@@H]3CC[C@H]4[C@](C)(COS(=O)(=O)[O-])[C@@H](O)CC[C@@]45C[C@@]35CC[C@]12C.[Na+]`
Result: 6

Problem: Another molecule to check: `CC(C)=CC(=O)C[C@@H](C)[C@H]1CC[C@@]2(C)[C@@H]3CC[C@H]4[C@](C)(CO)[C@@H](O)CC[C@@]45C[C@@]35CC[C@]12C`
Result: 6

Problem: Another molecule to check: `CC(C)=CC(=O)C[C@@H](C)[C@H]1CC[C@@]2(C)[C@@H]3CC[C@H]4[C@](C)(COS(=O)(=O)[O-])[C@@H](OS(=O)(=O)[O-])CC[C@@]45C[C@@]35CC[C@]12C.[Na+].[Na+]`
Result: 31

Problem: Another molecule to check: `CC(C)C[C@H](O)C[C@@H](C)[C@H]1CC[C@@]2(C)[C@@H]3CC[C@H]4[C@](C)(COS(=O)(=O)[O-])[C@@H](OS(=O)(=O)[O-])CC[C@@]45C[C@@]35CC[C@]12C.[Na+].[Na+]`
Result: 31

----------
Test system: PC-3
Assay: Antitumor activity against human PC3 cells after 72 hrs by MTT assay
Format: functional, cell-based
Settings: PC-3, 72 h
PROPERTY: pIC50
The meaning of pIC50 here: minus log10 of the concentration in molar units.

Problem: What pIC50 value was documented for this compound, `CC(C)CC(=O)C[C@@H](C)[C@H]1CC[C@@]2(C)[C@@H]3CC[C@H]4[C@](C)(COS(=O)(=O)[O-])[C@@H](OS(=O)(=O)[O-])CC[C@@]45C[C@@]35CC[C@]12C.[Na+].[Na+]` ?
Result: 4.51

Problem: Another compound to check: `CC(C)=CC(=O)C[C@@H](C)[C@H]1CC[C@@]2(C)[C@@H]3CC[C@H]4[C@](C)(CO)[C@@H](OS(=O)(=O)[O-])CC[C@@]45C[C@@]35CC[C@]12C.[Na+]`
Result: 5.22

Problem: Another compound to check: `CC(C)=CC(=O)C[C@@H](C)[C@H]1CC[C@@]2(C)[C@@H]3CC[C@H]4[C@](C)(CO)[C@@H](O)CC[C@@]45C[C@@]35CC[C@]12C`
Result: 5.22

Problem: Another compound to check: `CC(C)CC(=O)C[C@@H](C)[C@H]1CC[C@@]2(C)C3=C(CC[C@]12C)[C@@]1(C)CC[C@H](OS(=O)(=O)[O-])[C@@](C)(COS(=O)(=O)[O-])[C@@H]1CC3.[Na+].[Na+]`
Result: 4.51

Problem: Another compound to check: `CC(C)=CC(=O)C[C@@H](C)[C@H]1CC[C@@]2(C)[C@@H]3CC[C@H]4[C@](C)(COS(=O)(=O)[O-])[C@@H](O)CC[C@@]45C[C@@]35CC[C@]12C.[Na+]`
Result: 5.22

Problem: Another compound to check: `CC(C)C[C@H](O)C[C@@H](C)[C@H]1CC[C@@]2(C)[C@@H]3CC[C@H]4[C@](C)(COS(=O)(=O)[O-])[C@@H](OS(=O)(=O)[O-])CC[C@@]45C[C@@]35CC[C@]12C.[Na+].[Na+]`
Result: 4.51

Problem: Another compound to check: `CC(C)=CC(=O)C[C@@H](C)[C@H]1CC[C@@]2(C)[C@@H]3CC[C@H]4[C@](C)(COS(=O)(=O)[O-])[C@@H](OS(=O)(=O)[O-])CC[C@@]45C[C@@]35CC[C@]12C.[Na+].[Na+]`
Result: 4.51

src = ChEMBL document CHEMBL1156657
